Source of measurements: ChEMBL document CHEMBL3301472

- procedureSummary: MMV: MTT Cytotoxicity Assay Day 7 pi of Assay #10 (NO washout), U87-CD4-CCR5 cells, % cell death @ 5mM compound
- Type: toxicity, cell-based
- recordedConditions: human, u87-cd4-ccr5, 5000 µM
observedProperty: % Cell Death
Form: value (number only, do not type unit).

Check the records and state % Cell Death for O=C(NC(c1ccccc1)c1ccc2cccnc2c1O)c1ccccc1 (centres undefined) 122

Check the records and state % Cell Death for COc1ccc(/C=C2/SC(=Nc3ccccc3)NC2=O)cc1 115

Check the records and state % Cell Death for O=C(NC1CCCC1)c1ccc(N2CCC(NCc3cccc(C(F)(F)F)c3)CC2)cc1 -4

Check the records and state % Cell Death for CCN(CC)CCNc1ccnc2cc3ccccc3cc12.O=P(O)(O)O 10

Check the records and state % Cell Death for COc1ccc(Nc2nc(N/N=C/c3ccc(O)cc3)nc(Nc3ccc([N+](=O)[O-])cc3)n2)cc1 11

Check the records and state % Cell Death for COc1ccc2c(c1)OC(O)(C(F)(F)C(F)(F)F)CC2=O (centres undefined) 62

Check the records and state % Cell Death for CCOc1ccc(CN2CCN(CC(O)COc3ccc(OCC(O)CN4CCN(Cc5ccc(OCC)cc5)CC4)cc3)CC2)cc1 (centres undefined) 115

Check the records and state % Cell Death for CC(Oc1ccc(NC(=O)c2cccs2)cc1)C(=O)c1ccc(Cl)cc1 (centres undefined) 2

Check the records and state % Cell Death for COCCNCC(O)Cn1c2ccc(Cl)cc2c2cc(Cl)ccc21 (centres undefined) 28

Check the records and state % Cell Death for COc1ccc(Nc2cc(C)nc(NCc3ccccc3)n2)cc1 92

Check the records and state % Cell Death for CCOC(=O)c1c(C)n(-c2ccccc2)c2ccc(OC(=O)c3cc(OC)c(OC)c(OC)c3)cc12 12

Check the records and state % Cell Death for CCCCc1ccc(NS(=O)(=O)c2cc3c4c(c2)CCN4C(=O)CC3)cc1 85

Check the records and state % Cell Death for CCOc1cc2c(cc1OCC)C(c1cc(Cl)ccc1O)NCC2 (centres undefined) 17

Check the records and state % Cell Death for Oc1c2c(nc3cc(-c4ccccc4)nn13)CCCC2 1

Check the records and state % Cell Death for CCCc1c(CC)c(=N)c2ccccc2n1C -7

Check the records and state % Cell Death for Cc1cc(C)cc(Nc2cc(C)nc3nc(C(F)(F)F)nn23)c1 -23

Check the records and state % Cell Death for COc1ccc(CCNC(=O)c2cc(S(=O)(=O)N3CC(C)CC(C)C3)ccc2Sc2ccc(F)cc2)cc1OC (centres undefined) 27

Check the records and state % Cell Death for COc1ccccc1CNC(=O)C1c2ccccc2C(=O)N(CC(C)C)C1c1cccs1 (centres undefined) 60

Check the records and state % Cell Death for CCOc1cccc(C(=O)Nc2ccc(-c3nc4ccccc4[nH]3)cc2)c1 6
